# PROTOCOL DETAILS: retention time on BEH HILIC column (20 min gradient, 0.4 mL/min); higher = later elution
# RECORDED CONDITIONS: ionization: ESI positive; LC: HILIC, pH 3.0 ammonium formate
Rule: 1 for retention time on BEH HILIC column not less than 4 min, 0 for anything less.

Please review the following examples before continuing.
{"COMPOUND": "CNC[C@H](O)c1ccc(O)c(O)c1 [Epinephrine]", "QUALITATIVE LABEL": 1}
{"COMPOUND": "CCCCCC/C=C\\CCCCCCCC(=O)O", "QUALITATIVE LABEL": 0}
{"COMPOUND": "CCOC(=O)CC(C)C(=O)OCC (stereo not given) [Diethyl methylsuccinate]", "QUALITATIVE LABEL": 0}

Moving on to another compound below.
I'd appreciate it if you could say whether O=C(O)CCCC(=O)C(=O)O has retention time on BEH HILIC column at least equal to 4 min.
1

* * *

# PROTOCOL DETAILS: retention time on BEH HILIC column (20 min gradient, 0.4 mL/min); higher = later elution
# RECORDED CONDITIONS: ionization: ESI positive; LC: HILIC, pH 3.0 ammonium formate
Below: a set of entries, each annotated with reported retention time on BEH HILIC column.
Numbers only here, please. The scale is min.

{"CHEMICAL STRING": "OC[C@H]1O[C@H](O)[C@H](O)[C@@H](O)[C@H]1O", "UNIT DESCRIPTOR": "min", "retention time on BEH HILIC column": 4.2}
{"CHEMICAL STRING": "Nc1nc2c(ncn2[C@@H]2O[C@@H]3COP(=O)(O)O[C@H]3[C@H]2O)c(=O)[nH]1", "UNIT DESCRIPTOR": "min", "retention time on BEH HILIC column": 6.92}

Form field retention time on BEH HILIC column, entry O=C1O[C@H]([C@@H](O)CO)C(O)=C1O : 0.72

# retention time on BEH HILIC column of NCCC(=O)N[C@@H](Cc1cnc[nH]1)C(=O)O = 11.8

retention time on BEH HILIC column reported for this molecule OC[C@H]1O[C@H](O)[C@@H](O)[C@@H](O)[C@@H]1O : 3.87

* * *

# PROTOCOL DETAILS: collision cross section (TWIMS, N2) of ion [M+H]+; higher = larger gas-phase ion cross section
# RECORDED CONDITIONS: ionization: ESI positive; LC: HILIC, pH 3.0 ammonium formate
PROPERTY MEASURED: collision cross section (Å²)
Give just the numeric value; Å² need not be written.

Examples from the recorded data:
{"COMPOUND": "O=C(O)CNC(=O)Cc1ccccc1", "collision cross section / Å²": 142.08}
{"COMPOUND": "CCCCCCCCC(=O)OC [Methyl nonanoate]", "collision cross section / Å²": 148.93}
{"COMPOUND": "NC(=O)NCCC[C@H](N)C(=O)O", "collision cross section / Å²": 137.33}
{"COMPOUND": "N[C@@H](Cc1ccccc1)C(=O)O", "collision cross section / Å²": 137.14}
{"COMPOUND": "NCCc1ccc(O)c(O)c1", "collision cross section / Å²": 139.55}

The compound listed as N[C@@H](CCC(=O)N[C@@H](CS)C(=O)NCC(=O)O)C(=O)O has a reported collision cross section of 166.01

* * *

# PROTOCOL DETAILS: retention time on BEH HILIC column (20 min gradient, 0.4 mL/min); higher = later elution
# RECORDED CONDITIONS: ionization: ESI negative; LC: HILIC, pH 9.0 ammonium acetate
# label = 1 if retention time on BEH HILIC column >= 1 min else 0

{"MOLECULE": "C[C@@H](O)CC(=O)O [3-hydroxybutyric acid]", "QUALITATIVE LABEL": 0}

Could you tell me if the measured retention time on BEH HILIC column of OC[C@H]1O[C@@](CO)(O[C@H]2O[C@H](CO)[C@@H](O)[C@H](O)[C@H]2O)[C@@H](O)[C@@H]1O reaches 1 min or more?
1

Is reported retention time on BEH HILIC column greater than or equal to 1 min here: O=C(O)c1ccc(O)cc1 [4-hydroxybenzoic acid]
0

* * *

# key: entry, value: collision cross section
# PROTOCOL DETAILS: collision cross section (TWIMS, N2) of ion [M+H]+; higher = larger gas-phase ion cross section
# RECORDED CONDITIONS: ionization: ESI positive; LC: HILIC, pH 3.0 ammonium formate
# unit: Å² | format: bare number

Examples with answers:
{"COMPOUND": "CSCC[C@H](N)C(=O)O", "collision cross section [Å²]": 131.48}
{"COMPOUND": "Nc1ncnc2c1ncn2[C@@H]1O[C@H](COP(=O)(O)O)[C@@H](O)[C@H]1O", "collision cross section [Å²]": 167.89}
{"COMPOUND": "NC(=O)c1cccnc1 [Niacinamide]", "collision cross section [Å²]": 123.01}
{"COMPOUND": "N[C@@H](CCSC[C@H](N)C(=O)O)C(=O)O", "collision cross section [Å²]": 144}
{"COMPOUND": "CN(CC(=O)O)C(=N)N", "collision cross section [Å²]": 122.23}
{"COMPOUND": "CC(=O)SCCNC(=O)CCNC(=O)[C@H](O)C(C)(C)COP(=O)(O)OP(=O)(O)OC[C@H]1O[C@@H](n2cnc3c(N)ncnc32)[C@H](O)[C@@H]1OP(=O)(O)O", "collision cross section [Å²]": 248.16}
{"COMPOUND": "CCC(C)CCC(=O)O (stereo not given)", "collision cross section [Å²]": 137.57}
{"COMPOUND": "NCCCC[C@H](N)C(=O)O", "collision cross section [Å²]": 131.69}

Record summary for CN1CC(=O)NC1=N : reported collision cross section = 120.17

Lab book: collision cross section of Nc1nc2c(ncn2[C@@H]2O[C@@H]3COP(=O)(O)O[C@H]3[C@H]2O)c(=O)[nH]1 noted as 171.22

* * *

# PROTOCOL DETAILS: collision cross section (TWIMS, N2) of ion [M-H]-; higher = larger gas-phase ion cross section
# RECORDED CONDITIONS: ionization: ESI negative; LC: HILIC, pH 9.0 ammonium acetate
PROPERTY MEASURED: collision cross section (Å²)
Respond with the bare value in Å².

The examples below pair each entry with its known result.
{"COMPOUND": "CCCCCCCC(=O)O", "MEASURED NUMBER": 141.36}
{"COMPOUND": "N[C@@H](Cc1cnc[nH]1)C(=O)O", "MEASURED NUMBER": 129.28}
{"COMPOUND": "N=C(NCCC[C@H](N)C(=O)O)N[C@@H](CC(=O)O)C(=O)O", "MEASURED NUMBER": 164.65}
{"COMPOUND": "Cc1ncc(C[n+]2csc(CCO)c2C)c(N)n1", "MEASURED NUMBER": 164.85}
{"COMPOUND": "CC(=O)Oc1ccc(O)cc1 [4-hydroxyphenyl acetate]", "MEASURED NUMBER": 129.47}
{"COMPOUND": "CC[C@H](C)[C@H](N)C(=O)O", "MEASURED NUMBER": 129.46}

// below: collision cross section requested for another compound
The recorded collision cross section for CCCCCCCCCCCCCCCCCC(=O)O is 184.42

* * *

# PROTOCOL DETAILS: retention time on BEH HILIC column (20 min gradient, 0.4 mL/min); higher = later elution
# RECORDED CONDITIONS: ionization: ESI negative; LC: HILIC, pH 9.0 ammonium acetate
Here the recorded retention time on BEH HILIC column is given for each entry.
API: value field is a number in min; no unit string.

{"COMPOUND": "O=C1CC[C@@H](C(=O)O)N1", "retention time on BEH HILIC column / min": 5.48}
{"COMPOUND": "CC[C@H](O)C(=O)O [2-hydroxybutyric acid]", "retention time on BEH HILIC column / min": 1.95}
{"COMPOUND": "CCCCCCCCCCCCCCCCCC(=O)O", "retention time on BEH HILIC column / min": 0.73}
{"COMPOUND": "CCCCCCCCCC(=O)O", "retention time on BEH HILIC column / min": 0.75}
{"COMPOUND": "NCCC[C@H](N)C(=O)O", "retention time on BEH HILIC column / min": 11.2}

Let us examine a further case.
retention time on BEH HILIC column in this record for CCCCCCCCCCCCCCCCCCCC(=O)O : 0.73

* * *

# PROTOCOL DETAILS: collision cross section (TWIMS, N2) of ion [M+H-H2O]+; higher = larger gas-phase ion cross section
# RECORDED CONDITIONS: ionization: ESI positive; LC: HILIC, pH 3.0 ammonium formate
PROPERTY MEASURED: collision cross section (Å²)
# value in Å²; strip the unit string

{"COMPOUND": "CC(C)(CO)[C@@H](O)C(=O)NCCC(=O)O", "UNIT DESCRIPTOR": "Å²", "MEASURED NUMBER": 144.55}

collision cross section recorded for this compound, O=C(O)[C@H]1O[C@H](O)[C@H](O)[C@@H](O)[C@@H]1O , is 134.39

O=C(O)CNC(=O)Cc1ccccc1 yielded collision cross section of 138.2

Lab note: CNC[C@H](O)c1ccc(O)c(O)c1 [Epinephrine] gave collision cross section of 136.45

Recorded collision cross section (compound O=C(O)c1cccnc1C(=O)O ): 130.12

In plain terms, Nc1c(O)cccc1C(=O)O [3-hydroxyanthranilic acid] has a documented collision cross section of 121.78

Record O=c1cc[nH]c(=O)[nH]1 . Reported collision cross section: 120.58

Kindly note the recorded collision cross section for N=C(NCCC[C@H](N)C(=O)O)N[C@@H](CC(=O)O)C(=O)O , which is 160.05

Provenance of the data: the supplement of paper PMC11127212
